test: Apparent permeability from apical to basolateral side in human Caco2 cells at 10 uM by lucifer yellow flux assay; type: ADME, cell-based; conditions: Caco-2
QUANTITY KIND: Papp A→B at 10 µM (×10⁻⁶ cm/s)
Just the number in ×10⁻⁶ cm/s, nothing appended.

Suppose we examine the compound C[C@H](NC(=O)c1c(N)nn2cccnc12)c1cc2cccc(C#Cc3cnn(C)c3)c2c(=O)n1-c1ccccc1 ; what Papp A→B at 10 µM value has been reported? 13

----------
assay: Oral bioavailability in CD-1 mouse plasma at 5 mg/kg measured 24 hrs post dose by LC/MS/MS analysis; type: ADME, organism-based
QUANTITY KIND: bioavailability

Looking for the measured bioavailability of C[C@H](NC(=O)c1c(N)nn2cccnc12)c1cc2cccc(C#Cc3cnn(C)c3)c2c(=O)n1-c1ccccc1 , can you help? 88%

----------
target: Voltage-gated inwardly rectifying potassium channel KCNH2 (Homo sapiens, UniProt Q12809)
Sequence (Q12809 whole entry): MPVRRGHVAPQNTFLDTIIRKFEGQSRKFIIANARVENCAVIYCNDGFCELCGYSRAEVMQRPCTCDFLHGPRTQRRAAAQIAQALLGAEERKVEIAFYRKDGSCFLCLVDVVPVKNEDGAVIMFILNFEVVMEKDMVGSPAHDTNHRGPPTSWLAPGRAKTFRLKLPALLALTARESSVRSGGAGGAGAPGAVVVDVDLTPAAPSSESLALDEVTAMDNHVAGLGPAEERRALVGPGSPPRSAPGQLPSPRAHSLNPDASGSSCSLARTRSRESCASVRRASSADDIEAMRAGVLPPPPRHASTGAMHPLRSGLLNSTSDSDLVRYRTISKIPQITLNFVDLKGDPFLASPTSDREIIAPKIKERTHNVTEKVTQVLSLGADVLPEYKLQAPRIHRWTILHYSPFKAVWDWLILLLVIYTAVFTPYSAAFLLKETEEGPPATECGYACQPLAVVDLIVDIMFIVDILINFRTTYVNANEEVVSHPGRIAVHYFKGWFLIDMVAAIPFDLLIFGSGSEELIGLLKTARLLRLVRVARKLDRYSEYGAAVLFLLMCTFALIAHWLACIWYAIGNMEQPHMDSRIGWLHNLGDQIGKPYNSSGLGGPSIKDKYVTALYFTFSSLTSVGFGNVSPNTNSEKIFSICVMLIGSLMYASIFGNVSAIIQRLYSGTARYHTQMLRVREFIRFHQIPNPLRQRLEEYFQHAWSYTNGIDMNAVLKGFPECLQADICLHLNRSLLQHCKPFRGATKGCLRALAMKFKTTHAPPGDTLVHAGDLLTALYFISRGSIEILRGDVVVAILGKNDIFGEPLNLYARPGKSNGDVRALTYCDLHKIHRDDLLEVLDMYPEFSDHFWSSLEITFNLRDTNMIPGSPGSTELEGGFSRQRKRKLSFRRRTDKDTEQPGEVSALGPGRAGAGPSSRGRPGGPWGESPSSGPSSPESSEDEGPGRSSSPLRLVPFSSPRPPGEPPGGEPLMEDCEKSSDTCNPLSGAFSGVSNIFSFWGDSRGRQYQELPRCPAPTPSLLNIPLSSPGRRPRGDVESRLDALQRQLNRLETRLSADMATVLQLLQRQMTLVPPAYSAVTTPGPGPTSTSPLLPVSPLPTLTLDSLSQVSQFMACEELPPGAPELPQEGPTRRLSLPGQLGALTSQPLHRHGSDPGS
QUANTITY KIND: IC50

Param item = C[C@H](NC(=O)c1c(N)nn2cccnc12)c1cc2cccc(C#Cc3cnn(C)c3)c2c(=O)n1-c1ccccc1 [EGANELISIB] ; retrieve measured IC50. > 10 µM

----------
# Lookup of reported IC50 keyed by entry
molecular target: PI3-kinase p110-delta/p85-alpha (Homo sapiens); assay: Inhibition of human recombinant full length N-terminal GST-tagged PI3K p110delta/p85alpha coexpressed in baculovirus infected Sf9 insect cells using diC8PIP2 as substrate incubated for 15 mins followed by substrate addition measured after 2 hr by ADP-Glo luminescence assay
Sequence (P27986 whole entry): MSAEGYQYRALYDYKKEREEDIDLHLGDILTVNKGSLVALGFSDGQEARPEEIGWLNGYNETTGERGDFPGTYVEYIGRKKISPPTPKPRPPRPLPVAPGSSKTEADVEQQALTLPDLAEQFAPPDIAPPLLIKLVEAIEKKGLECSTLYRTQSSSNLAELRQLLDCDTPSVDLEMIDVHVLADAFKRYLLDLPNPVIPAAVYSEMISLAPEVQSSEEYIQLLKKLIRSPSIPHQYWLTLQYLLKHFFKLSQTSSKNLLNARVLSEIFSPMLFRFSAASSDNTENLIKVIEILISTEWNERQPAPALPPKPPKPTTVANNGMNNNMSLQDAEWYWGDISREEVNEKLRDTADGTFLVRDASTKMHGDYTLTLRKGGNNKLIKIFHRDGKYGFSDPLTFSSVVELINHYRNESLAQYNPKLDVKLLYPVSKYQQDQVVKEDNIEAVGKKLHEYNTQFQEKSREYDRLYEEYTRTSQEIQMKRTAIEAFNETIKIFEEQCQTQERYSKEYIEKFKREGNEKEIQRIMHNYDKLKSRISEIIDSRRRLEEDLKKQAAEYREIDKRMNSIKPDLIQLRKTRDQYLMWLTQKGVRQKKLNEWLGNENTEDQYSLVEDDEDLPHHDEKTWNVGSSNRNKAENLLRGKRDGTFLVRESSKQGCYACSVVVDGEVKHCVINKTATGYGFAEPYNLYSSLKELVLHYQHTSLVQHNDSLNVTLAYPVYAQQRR
Sequence (O00329 whole entry): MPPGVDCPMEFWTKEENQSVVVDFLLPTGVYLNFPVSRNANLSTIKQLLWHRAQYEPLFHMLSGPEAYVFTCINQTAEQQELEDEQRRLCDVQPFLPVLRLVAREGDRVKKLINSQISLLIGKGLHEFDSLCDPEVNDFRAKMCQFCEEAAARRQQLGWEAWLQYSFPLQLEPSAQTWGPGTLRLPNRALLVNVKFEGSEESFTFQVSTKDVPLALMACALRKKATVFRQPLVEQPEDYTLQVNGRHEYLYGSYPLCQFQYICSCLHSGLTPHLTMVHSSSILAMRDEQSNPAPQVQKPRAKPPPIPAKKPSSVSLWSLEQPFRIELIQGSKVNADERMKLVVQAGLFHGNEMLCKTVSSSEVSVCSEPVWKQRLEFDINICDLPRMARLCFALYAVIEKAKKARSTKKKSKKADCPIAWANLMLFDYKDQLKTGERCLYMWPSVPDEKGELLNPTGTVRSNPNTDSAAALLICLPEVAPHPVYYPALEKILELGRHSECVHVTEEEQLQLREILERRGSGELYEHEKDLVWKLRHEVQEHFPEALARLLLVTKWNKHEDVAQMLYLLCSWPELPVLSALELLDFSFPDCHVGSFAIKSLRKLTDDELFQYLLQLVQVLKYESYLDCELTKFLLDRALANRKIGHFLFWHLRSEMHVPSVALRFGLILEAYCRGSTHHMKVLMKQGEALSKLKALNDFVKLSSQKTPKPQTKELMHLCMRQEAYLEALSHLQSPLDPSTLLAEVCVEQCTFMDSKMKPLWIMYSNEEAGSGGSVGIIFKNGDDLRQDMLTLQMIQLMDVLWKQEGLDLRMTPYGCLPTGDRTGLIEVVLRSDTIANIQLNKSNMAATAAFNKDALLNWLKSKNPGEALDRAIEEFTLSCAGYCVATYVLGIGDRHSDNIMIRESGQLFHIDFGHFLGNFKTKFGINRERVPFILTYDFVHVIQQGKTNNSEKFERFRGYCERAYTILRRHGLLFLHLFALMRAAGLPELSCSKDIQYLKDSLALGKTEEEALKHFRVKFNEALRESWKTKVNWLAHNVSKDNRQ

Reference set (8 entries):
STRUCTURE SMILES STRING | TESTED SYSTEM | QUANTITY KIND | OBSERVED MEASUREMENT
C[C@H](NC(=O)c1c(N)nn2cccnc12)c1cc2cccc(N(C)C)c2c(=O)n1-c1ccccc1 | PI3-kinase p110-delta/p85-alpha (Homo sapiens) | IC50 | > 10 µM
C[C@H](NC(=O)c1c(N)nn2cccnc12)c1cc2cccc(C#Cc3cncs3)c2c(=O)n1-c1ccccc1 | PI3-kinase p110-delta/p85-alpha (Homo sapiens) | IC50 | > 8 µM
COc1cccc2cc([C@H](C)NC(=O)c3c(N)nn4cccnc34)n(-c3ccccc3)c(=O)c12 | PI3-kinase p110-delta/p85-alpha (Homo sapiens) | IC50 | > 9 µM
C[C@H](NC(=O)c1c(N)nn2cccnc12)c1cc2cccc(C#Cc3ccccn3)c2c(=O)n1-c1ccccc1 | PI3-kinase p110-delta/p85-alpha (Homo sapiens) | IC50 | > 9.6 µM
C[C@H](NC(=O)c1c(N)nn2cccnc12)c1cc2cccc(C#Cc3cccnc3)c2c(=O)n1-c1ccccc1 | PI3-kinase p110-delta/p85-alpha (Homo sapiens) | IC50 | > 6 µM
CNc1cccc2cc([C@H](C)NC(=O)c3c(N)nn4cccnc34)n(-c3ccccc3)c(=O)c12 | PI3-kinase p110-delta/p85-alpha (Homo sapiens) | IC50 | > 10 µM
C[C@H](NC(=O)c1c(N)nn2cccnc12)c1cc2cccc(C#Cc3ccn(C)n3)c2c(=O)n1-c1ccccc1 | PI3-kinase p110-delta/p85-alpha (Homo sapiens) | IC50 | > 9 µM
C[C@H](NC(=O)c1c(N)ncc2ccccc12)c1cc2cccc(Cl)c2c(=O)n1-c1ccccc1 | PI3-kinase p110-delta/p85-alpha (Homo sapiens) | IC50 | > 10 µM

What does the data say about its IC50? Entry: C[C@H](NC(=O)c1c(N)nn2cccnc12)c1cc2cccc(C#Cc3nccs3)c2c(=O)n1-c1ccccc1 > 10 µM

Also CC#Cc1cccc2cc([C@H](C)NC(=O)c3c(N)nn4cccnc34)n(-c3ccccc3)c(=O)c12 ? > 1 µM

# repeat for Nc1nn2cccnc2c1C(=O)NCc1cc2cccc(Cl)c2c(=O)n1-c1ccccc1 > 10 µM

Note, next up: C[C@H](NC(=O)c1c(N)nn2cccnc12)c1cc2cccc(C#Cc3ccncc3)c2c(=O)n1-c1ccccc1 > 9 µM

Thanks! And C/C=C/c1cccc2cc([C@H](C)NC(=O)c3c(N)nn4cccnc34)n(-c3ccccc3)c(=O)c12 ? > 10 µM

These data points were gathered from ChEMBL document CHEMBL3853350.
